log10 of koff: recorded values
SYSTEM UNDER TEST: T1, human PVRIG-his (AcroBiosystems, Cat NO. PVG-H52H4) (human, UniProt Q6DKI7 41-171, limits assumed)
T1 construct: also called human PVRIG protein
T1 sequence (looked up): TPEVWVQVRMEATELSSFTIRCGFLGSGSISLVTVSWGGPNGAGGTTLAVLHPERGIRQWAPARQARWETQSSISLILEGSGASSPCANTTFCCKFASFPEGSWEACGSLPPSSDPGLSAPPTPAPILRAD
TEST DETAILS: SPR (BIAcore), antibody captured on Protein A chip, human PVRIG-His analyte
MEASUREMENT NAME: log10 of koff (log10 of the value in s⁻¹)

BINDER | EXPERIMENTAL VALUE
PVRIG-A118-H4 (Fc fusion, humanized variant of PVRIG-A118; also called A118.VH4; not shown: constant part not restated for the humanized forms; parents are VHH-hinge-CH2-CH3 of human IgG1; detected by anti-human) EVQLVESGGGLVQPGGSLRLSCAASETYFDLYVMGWYRQAPGKDRELVATITYTGSIKYVDSVKGRFTISRGDAKNSLSLQMNSLRAEDTAVYYCNADPSGLGRKVYWGQGTMVTVSS | -2.49
PVRIG-A118-H1 (Fc fusion, humanized variant of PVRIG-A118; also called A118.VH1; not shown: constant part not restated for the humanized forms; parents are VHH-hinge-CH2-CH3 of human IgG1; detected by anti-human) EVQLVESGGGLVQPGGSLRLSCAASETYFDLYVMGWYRQAPGKDRELVATITYTGSIYYVDSVKGRFTISRDNAKNSLYLQMNSLRAEDTAVYYCNADPSGLGRKVYWGQGTMVTVSS | -3.18
PVRIG-A105 (Fc fusion, heavy chain antibody VHH-hinge-CH2-CH3, human IgG1 constant part; not shown: human IgG1 hinge-CH2-CH3) EVQLVESGGGLVQAGGSLRLSCAASGRTFDRHTMTWFRQAPGKEREFVATASRIPGDTYYSHSVKGRFTISRDNAKNTVYLQLNNLKPEDTAVYYCAATSAYCSEVDCYEKGSWYDNWGQGIQVTVSS | -3.31
PVRIG-A50-H1a (Fc fusion, humanized variant of PVRIG-A50; also called A50.VH1a; not shown: constant part not restated for the humanized forms; parents are VHH-hinge-CH2-CH3 of human IgG1; detected by anti-human) EVQLVESGGGLVQPGGSLRLSCAASGFTFSYYDMSWVRQAPGKGLEWVSTINSDGGRTSYVDSVKGRFTISRDNSKNTLYLQMNSLRAEDTAVYYCVEGDPHNFGLENLSLRDFGSWGQGTMVTVSS | -4.72
PVRIG-A118 (Fc fusion, heavy chain antibody VHH-hinge-CH2-CH3, human IgG1 constant part; not shown: human IgG1 hinge-CH2-CH3) QVQLVESGGGLVQAGGSLRLSCAASETYFDLYVMGWYRQAPGKDRELVATITYTGSIKIVDSVKDRFTISRGDAKNTVSLQMSSLKPEDTAVYFCNADPSGLGRKVYWGQGTQVTVSS | -2.99
PVRIG-A50 (Fc fusion, heavy chain antibody VHH-hinge-CH2-CH3, human IgG1 constant part; also called PVRIG-50; not shown: human IgG1 hinge-CH2-CH3) EVQLVESGGGLVQPGGSLRLSCAASGFTFSYYDMSWVRQAPGKGLEWVSTINSNGGRTSYVDSVKGRFTISRDNTKNTLYLQMNSLKPEDTAVYYCVEGDPHNFGLENLSLRDFGSWGQGTQVTVSS | -4.72
PVRIG-A50-H1 (Fc fusion, humanized variant of PVRIG-A50; also called A50.VH1; not shown: constant part not restated for the humanized forms; parents are VHH-hinge-CH2-CH3 of human IgG1; detected by anti-human) EVQLVESGGGLVQPGGSLRLSCAASGFTFSYYDMSWVRQAPGKGLEWVSTINSNGGRTSYVDSVKGRFTISRDNSKNTLYLQMNSLRAEDTAVYYCVEGDPHNFGLENLSLRDFGSWGQGTMVTVSS | -4.83
PVRIG-A118-H3 (Fc fusion, humanized variant of PVRIG-A118; also called A118.VH3; not shown: constant part not restated for the humanized forms; parents are VHH-hinge-CH2-CH3 of human IgG1; detected by anti-human) EVQLVESGGGLVQPGGSLRLSCAASETYFDLYVMGWYRQAPGKDRELVATITYTGSIKYVDSVKGRFTISRGDAKNSLYLQMNSLRAEDTAVYYCNADPSGLGRKVYWGQGTMVTVSS | -2.46
